# Lookup of reported solubility keyed by entry
Experiment: Solubility of the compound
Type: physicochemical
Write the number in µg/mL without appending the unit.

1. CN1CCN(C(=O)c2ccc(-c3cn4c(-c5ccc(O)cc5)cnc4cn3)cc2)CC1 = 144
2. O=C(c1ccc(-c2cn3c(-c4ccc(O)cc4)cnc3cn2)cc1)N1CCOCC1 = 11.5

The record that follows has no solubility shown yet.
# get_value(readout='solubility', item= CC(=O)N1CCN(C(=O)c2ccc(-c3cn4c(-c5ccc(O)cc5)cnc4cn3)cc2)CC1 ) 144

###

Biological target: Proto-oncogene tyrosine-protein kinase receptor Ret (Homo sapiens, UniProt P07949)
Sequence (P07949 whole entry): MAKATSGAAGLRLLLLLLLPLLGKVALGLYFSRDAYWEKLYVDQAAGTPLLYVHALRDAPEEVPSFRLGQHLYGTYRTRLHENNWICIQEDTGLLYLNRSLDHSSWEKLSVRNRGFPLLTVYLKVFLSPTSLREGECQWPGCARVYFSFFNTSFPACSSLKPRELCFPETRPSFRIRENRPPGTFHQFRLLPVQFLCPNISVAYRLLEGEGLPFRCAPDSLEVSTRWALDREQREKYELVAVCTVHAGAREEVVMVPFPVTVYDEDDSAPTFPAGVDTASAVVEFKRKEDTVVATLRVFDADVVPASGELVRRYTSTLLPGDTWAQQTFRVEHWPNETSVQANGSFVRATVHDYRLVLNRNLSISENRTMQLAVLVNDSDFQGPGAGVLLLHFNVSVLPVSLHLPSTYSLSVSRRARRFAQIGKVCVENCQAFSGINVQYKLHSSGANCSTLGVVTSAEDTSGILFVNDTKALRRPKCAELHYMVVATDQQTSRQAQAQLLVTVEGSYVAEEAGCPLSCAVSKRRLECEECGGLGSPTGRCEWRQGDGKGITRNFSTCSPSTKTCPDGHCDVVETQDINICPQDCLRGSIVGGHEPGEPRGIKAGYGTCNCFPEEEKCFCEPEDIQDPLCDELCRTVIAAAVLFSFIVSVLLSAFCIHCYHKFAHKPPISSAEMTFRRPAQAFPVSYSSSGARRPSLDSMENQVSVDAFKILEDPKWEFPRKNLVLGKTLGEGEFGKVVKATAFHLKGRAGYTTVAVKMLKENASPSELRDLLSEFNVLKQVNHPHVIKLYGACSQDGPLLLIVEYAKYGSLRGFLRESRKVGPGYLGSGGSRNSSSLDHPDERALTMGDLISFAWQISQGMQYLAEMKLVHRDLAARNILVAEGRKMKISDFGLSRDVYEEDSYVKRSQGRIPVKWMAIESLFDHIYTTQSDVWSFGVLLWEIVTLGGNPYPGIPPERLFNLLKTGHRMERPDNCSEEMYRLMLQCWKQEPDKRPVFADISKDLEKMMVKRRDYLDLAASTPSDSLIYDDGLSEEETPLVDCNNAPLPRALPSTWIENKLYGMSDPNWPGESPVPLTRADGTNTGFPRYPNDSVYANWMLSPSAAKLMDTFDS
readout_label: IC50

# returns recorded IC50 (system: Proto-oncogene tyrosine-protein kinase receptor Ret (Homo sapiens, UniProt P07949)) for CN1CCN(Cc2ccc(NC(=O)CNc3ccc(-c4ccc(NC(=O)C5CC5)nc4)cc3F)cc2C(F)(F)F)CC1 < 24 nM
